Values were extracted from ChEMBL document CHEMBL3232793.

Overview of recorded selectivity ratio for various compounds
run-description: Selectivity index, ratio of compound activity for human HeLa cells to EC50 for wild type HIV1
Format: toxicity, cell-based
test-settings: read-out: Selectivity Index
property-label: selectivity ratio

INSERT INTO assay_data (smiles_repr, reported_result) VALUES
  ('Cc1cc(C#N)cc(C)c1Oc1nc(Nc2ccc(C#N)cc2)nc2[nH]ccc12', '> 50000'),
  ('Cc1cc(C#N)cc(C)c1Oc1nc(Nc2ccc(C#N)cc2)nc2cc[nH]c12', '> 50000');

* * *

run-description: Cytotoxicity against human MT4 cells assessed as cell viability by MTT assay
Format: cell-based
Listing: CC50 of selected compounds
property-label: CC50

INSERT INTO measurements (compound, reported_result) VALUES
  ('Cc1ccnc2c1NC(=O)c1cccnc1N2C1CC1 [NEVIRAPINE]', '> 15 µM'),
  ('Cc1cc(C#N)cc(C)c1Oc1nc(Nc2ccc(C#N)cc2)nc(N)c1Br [ETRAVIRINE]', '> 4.6 µM'),
  ('CC(C)Nc1cccnc1N1CCN(C(=O)c2cc3cc(NS(C)(=O)=O)ccc3[nH]2)CC1 [DELAVIRDINE]', '> 43.8 µM');

* * *

System: Human immunodeficiency virus 1
run-description: Antiviral activity against HIV1 3B infected in human MT4 cells assessed as virus-induced cytopathic effect by MTT assay
Type: functional, organism-based
test-settings: Human immunodeficiency virus 1, 3B
property-label: EC50 (µM)

INSERT INTO measurements (molecule, reported_result) VALUES
  ('Cc1ccnc2c1NC(=O)c1cccnc1N2C1CC1 [NEVIRAPINE]', 0.17);

* * *

run-description: Selectivity index, ratio of CC50 for human MT4 cells to EC50 for HIV1 3B
Type: toxicity, cell-based
test-settings: read-out: Ratio CC50/EC50
property-label: selectivity ratio

INSERT INTO assay_data (smiles_repr, reported_result) VALUES
  ('CC(C)Nc1cccnc1N1CCN(C(=O)c2cc3cc(NS(C)(=O)=O)ccc3[nH]2)CC1', '> 277');
